testProtocol: NCI Yeast Anticancer Drug Screen. Data for the rad50 strain (AID 155);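 further: 0% = growth of vehicle-only cultures of the same strain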
assaySetup: S. cerevisiae rad50 strain growth inhibition; at 100.0 µM; hits give high values
About 79,000 compounds went through this panel and 15% of them were active in at least one assay; those are over-represented in the sample as a whole. Residues, ends and D or L forms follow the SMILES beside them. *: point of attachment. CH2Cl = ClC*
Cut-off 80% on growth inhibition, inclusive. At or above means label 1; below means label 0.

hey, is growth inhibition for this one >= 80%? O=C(/C=C/c1cccc2ccccc12)c1ccc(Cl)cc1
label 0

State whether the measured growth inhibition reaches 80%, counting equality as reaching it, for COC(=O)c1cccc(C)c1C(=O)c1c(C)cc(C)cc1C
label 0

Has CN(N=O)C(=O)N[C@@H](C=O)[C@@H](O)[C@H](O)[C@H](O)CO a recorded growth inhibition greater than or equal to 80%?
label 0

Is the recorded value of growth inhibition equal to or greater than 80% for this compound? COCCCN(Cc1cc(OC)c(OC)c(OC)c1)C(=S)Nc1cccc(Cl)c1
label 0

Textbook exercise: given the entry CCCCOC(=O)CSSCC(=O)OCCCC , state whether its growth inhibition is greater than or equal to 80%.
label 1

Hi, just wondering whether COc1cccc(C(c2cc3c(cc2O)OCO3)N2CCOCC2)c1OC (stereo unspecified) shows growth inhibition of 80% or higher.
label 0

# bool: growth inhibition of CCCCC(=O)c1c(O)nc2sccn2c1=O >= 80%
label 1

Check this compound for growth inhibition at or above 80%: On1cnc(=S)c2[nH]cnc21
label 0

Threshold query (growth inhibition >= 80%) on Cc1cccc2c1N=C(C(F)(F)F)CC2=O
label 0

Evaluate O=C(/C=C\c1ccc([N+](=O)[O-])o1)Nc1ccc(Cl)cc1 : growth inhibition at minimum 80%?
label 1

Is growth inhibition for O=C(CCc1ccccc1)ON1C(=S)C(c2ccccc2)(c2ccccc2)N=C1Sc1ccccc1 at or above 80%?
label 0

Reported growth inhibition reaches at least 80% for CCOc1ccc(C(=O)CCC(=O)O)c(C)c1 ?
label 0

Determine whether measured growth inhibition meets or exceeds 80% for Clc1c(Cl)c(Cl)c2c(nnn2C2CCCO2)c1Cl (stereo unspecified)
label 0

growth inhibition >= 80% for Cc1ccc(N=Nc2ccc(O)c(C)c2)cc1 ?
label 1

Hi, just wondering whether CCNc1ccc2c(c1)C(=O)N(OS(C)(=O)=O)C2=O shows growth inhibition of 80% or higher.
label 1

Does growth inhibition meet or surpass 80% for O=C1C(Cl)=C(Cl)C(Cl)(Cl)C(Cl)C1(Cl)Cl (stereo unspecified) ?
label 1

Does the reported growth inhibition for CC(C)c1[nH]nc(C(N)=O)c1N=NN(C)C fall at or above the 80% mark?
label 1

Does Nc1ccc2c(c1)sc1ccccc12 have a reported growth inhibition of at least 80%?
label 1

Is it the case that CCOC(=O)C(NC(=O)CC)(N1CCN(c2cc3c(cc2F)c(=O)c(C(=O)O)cn3C2CC2)CC1)C(F)(F)F (stereo unspecified) has growth inhibition reaching or exceeding 80%?
label 1

# check: growth inhibition of O=[N+]([O-])c1cccc2nc3ccccc3c(NCCc3cccc[n+]3[O-])c12 is greater than or equal to 80%
label 1

Can O=Nc1ccc(Nc2ccccc2)cc1 be said to have growth inhibition at or above 80%?
label 1

Can CCOP1(=O)C=C(Sc2ccc([N+](=O)[O-])cc2[N+](=O)[O-])C(C)(C)O1 (stereo unspecified) be said to have growth inhibition at or above 80%?
label 1

Threshold query (growth inhibition >= 80%) on CC1OC(OC2CCCc3c(O)c4c(c(O)c32)C(=O)c2ccccc2C4=O)CC(N)C1O (stereo unspecified)
label 1

hey, is growth inhibition for this one >= 80%? C=C(CCCO)[C@@H]1CC[C@@](C)(O)[C@H]1C
label 0

Identify whether the reported growth inhibition of the following compound is 80% or greater: CC(=O)NC(CC(C)C)C(=O)NC(Cc1ccccc1)C(=O)CCl (stereo not drawn) (Ac-Leu-Phe-CH2Cl; configuration not given here)
label 0

I'd appreciate it if you could say whether CC(=O)C1=C(C)O/C(=C/c2cccc(Cl)c2)C1=O has growth inhibition at least equal to 80%.
label 1

Is it the case that CCN(CC)N=Nc1c(C(N)=O)n[nH]c1C has growth inhibition reaching or exceeding 80%?
label 1

Entry COc1ccc2oc(-c3ccc(Cl)cc3)c(N3CCN(C)CC3)c2c1 : is its growth inhibition no less than 80%?
label 1

Exam item: decide whether the reported growth inhibition for COc1cc2c(cc1C[N+](C)(C)CSc1ccccc1)-c1ccccc1CC2 is at least 80%.
label 1

Does the compound O=C(O)c1cccc2cccc(-c3c4ccc(=O)cc-4oc4cc(O)ccc34)c12 have recorded growth inhibition that is 80% or more?
label 1
